assay.explanation: NCI Yeast Anticancer Drug Screen. Data for the rad50 strain (AID 155);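 further: 0% = growth of vehicle-only cultures of the same strain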
particulars: S. cerevisiae rad50 strain growth inhibition; at 50.0 µM; stronger effect = higher value
This is part of a sample that, as a whole, favours compounds with a hit. Of some 79,000 tested, about 15% had one in any assay.
Collected growth inhibition values appear next to each entry.
measure.name: growth inhibition (%)

>  <molecule>
COC(=O)[C@]1(C)CCC[C@@]2(C)[C@H]1CC=C1C=C(C(C)C)CC[C@@H]12

>  <value.units>
%

>  <data.value>
50

$$$$
>  <molecule>
COc1ccc2[nH]c(C(F)(F)F)cc(=O)c2c1

>  <value.units>
%

>  <data.value>
9.4

$$$$
>  <molecule>
CC(=O)Oc1ccc(C2(OC(C)=O)c3ccccc3C(=O)c3ccccc32)cc1

>  <value.units>
%

>  <data.value>
11.5

$$$$
>  <molecule>
O=C1NC(=O)N2CCCOC2C1c1ccccc1 (stereo not given)

>  <value.units>
%

>  <data.value>
0.2

$$$$
>  <molecule>
CSc1c(C#N)c(N)n2c1C(=O)N(c1ccccc1)C2=S

>  <value.units>
%

>  <data.value>
-52.7

$$$$
>  <molecule>
COc1ccc2ncc(COC(=O)Nc3ccccc3)c(COC(=O)Nc3ccccc3)c2c1

>  <value.units>
%

>  <data.value>
22

$$$$
>  <molecule>
CCOC(=O)NC(=O)c1cn(CCCOC(=O)CCCCCCCCC(=O)OCCCn2cc(C(=O)NC(=O)OCC)c(=O)n(C)c2=O)c(=O)n(C)c1=O

>  <value.units>
%

>  <data.value>
-16.4

$$$$
>  <molecule>
c1ccc2nn(C3CCCCO3)nc2c1 (stereo not given)

>  <value.units>
%

>  <data.value>
-8.05

$$$$
>  <molecule>
Cc1nc2ccccc2c(=O)n1/N=C\c1ccc2c(c1)CCC2

>  <value.units>
%

>  <data.value>
-1.7

$$$$
>  <molecule>
CC(CO)CCC(=O)C(C)C1CC2(C)CCC3C(CCC4CC(O)CCC43C)C2C12SCCS2 (stereo not given)

>  <value.units>
%

>  <data.value>
0.6

$$$$

====

assay.explanation: NCI Yeast Anticancer Drug Screen. Data for the rad50 strain (AID 155);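 further: 0% = growth of vehicle-only cultures of the same strain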
particulars: S. cerevisiae rad50 strain growth inhibition; at 50.0 µM; stronger effect = higher value
Description: Growth inhibition of yeast strains with defined genetic alterations is measured as a screen for potential anti-cancer activity. Selected strains with alterations in DNA damage repair or cell cycle control were exposed to compounds and growth inhibition was measured relative to vehicle treated controls. The strain used in this assay is rad50
The panel holds about 79,000 compounds, 15% with a hit somewhere; the sample as a whole holds those more often.
growth inhibition values by entry
measure.name: growth inhibition (%)

>  <compound>
COC(=O)C12CCC(C(=O)OC)(CC1)n1c(=O)n(-c3ccccc3)c(=O)n12

>  <data.value>
-4.8

$$$$
>  <compound>
CC(C)OC(=O)/C=C/C(=O)OC(C)C (tested in a mixture with another compound)

>  <data.value>
-13.1

$$$$
>  <compound>
CCCCCCC(O)CCCCCCCCCCC(=O)O (stereo not given)

>  <data.value>
-14.3

$$$$
>  <compound>
CC(C)(c1ccccc1)c1ccc(Oc2ccc(C#N)c(C#N)c2)cc1

>  <data.value>
-27.2

$$$$
>  <compound>
Cc1cc2ccccc2c[n+]1CC(=O)c1ccc([N+](=O)[O-])cc1

>  <data.value>
-4.1

$$$$
>  <compound>
COc1ccc(-c2cc(-c3ccco3)c(C#N)c(=S)n2C2OC(COC(C)=O)C(OC(C)=O)C(OC(C)=O)C2OC(C)=O)cc1 (stereo not given)

>  <data.value>
19.6

$$$$
>  <compound>
CCCNS(C)(=O)=O

>  <data.value>
7.25

$$$$
>  <compound>
N/N=C1\C(Cl)=C(Cl)c2ccccc21

>  <data.value>
6.65

$$$$
>  <compound>
CCOC(=O)C(=CN(C)c1ccc(C)cc1)C(=O)OCC

>  <data.value>
20.4

$$$$
>  <compound>
CC1=C(C(=O)NCc2ccccc2)C(/C=C/c2ccccc2)C(C(=O)NCc2ccccc2)=C(C)N1

>  <data.value>
46

$$$$

====

assay.explanation: NCI Yeast Anticancer Drug Screen. Data for the bub3 strain (AID 167)
particulars: S. cerevisiae bub3 mutant strain, at 50.0 µM, stronger effect = higher value
The panel holds about 79,000 compounds, 15% with a hit somewhere; the sample as a whole holds those more often.

>  <compound>
O=C(O)C1CCCN1Cc1ccc2c(c1)OCO2 (stereo unspecified)

>  <value.units>
%

>  <growth inhibition>
-40.8

$$$$
>  <compound>
CC1=CC(=O)c2cc(C)ccc2C1=O

>  <value.units>
%

>  <growth inhibition>
-2.95

$$$$
>  <compound>
Cc1ccc(C(=N)c2ccccc2Cc2cccc3ccccc23)c2ccccc12

>  <value.units>
%

>  <growth inhibition>
-34.4

$$$$
>  <compound>
COc1ccc(C(=O)N2CCCCC2)cc1

>  <value.units>
%

>  <growth inhibition>
-0.9

$$$$
>  <compound>
C=C1CCC2[C@@H](CCC3[C@]2(C)CCC[C@]3(C)C(=O)OC)[C@@H]1CC=O (stereo partly specified)

>  <value.units>
%

>  <growth inhibition>
9.5

$$$$
>  <compound>
CCN(CC)Cc1cc(C(C)(C)CC)cc(-c2ccccc2)c1O

>  <value.units>
%

>  <growth inhibition>
8.5

$$$$
>  <compound>
CCOCCOC(=O)c1ccc(C(N)=NC2CCCCC2)cc1

>  <value.units>
%

>  <growth inhibition>
0.1

$$$$
>  <compound>
N#CCCN(CCC#N)c1nc(-c2ccccc2)nc(N(CCC#N)CCC#N)n1

>  <value.units>
%

>  <growth inhibition>
2.75

$$$$
>  <compound>
C(=C/c1ccccc1)/CN1CCCCC1

>  <value.units>
%

>  <growth inhibition>
37.2

$$$$
>  <compound>
COc1ccc(N2C(=O)C(=O)N(C)C2=O)c2ccccc12

>  <value.units>
%

>  <growth inhibition>
2.85

$$$$
>  <compound>
Cc1nc(C)c(C(=O)NNC(=O)C[n+]2ccccc2)cc1C(=O)NNC(=O)C[n+]1ccccc1

>  <value.units>
%

>  <growth inhibition>
-12.4

$$$$

====

assay.explanation: NCI Yeast Anticancer Drug Screen. Data for the cln2 rad14 strain (AID 165);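 further: 0% = growth equal to vehicle treated cultures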
particulars: S. cerevisiae cln2 rad14 strain, at 50.0 µM, stronger effect = higher value
About 79,000 compounds went through this panel and 15% of them were active in at least one assay; those are over-represented in the sample as a whole.
Listed here are molecules together with their documented growth inhibition.

>  <molecule>
CC(=O)N1Cc2c(cc(C)[nH]c2=O)C1=O

>  <growth inhibition [%]>
10.7

$$$$
>  <molecule>
CCOC(=O)c1cc(C)[nH]c1C

>  <growth inhibition [%]>
-17.6

$$$$
>  <molecule>
CCCCCCCCC(=O)N1SC(NC(=O)OC)=Nc2ccccc21

>  <growth inhibition [%]>
90.2

$$$$
>  <molecule>
COc1cc([C@@H]2c3cc4c(cc3[C@H](OC(=O)CCCC(=O)O)[C@H]3COC(=O)[C@H]23)OCO4)cc(OC)c1OC

>  <growth inhibition [%]>
32.3

$$$$
>  <molecule>
CC(=O)c1ccc(C(C)=O)c(OCc2ccccc2)c1

>  <growth inhibition [%]>
-27.9

$$$$
>  <molecule>
O=C(O)C1C(C2c3ccc(O)cc3Oc3cc(O)ccc32)C2(Cl)C(Cl)=C(Cl)C1(Cl)C2(Cl)Cl (stereo not drawn)

>  <growth inhibition [%]>
69.2

$$$$
>  <molecule>
CCOC(=O)NCS(=O)(=O)N1CCOCC1

>  <growth inhibition [%]>
19.6

$$$$
>  <molecule>
CCc1c(O)cc(=O)oc1-c1ccc(OC)c(OC)c1

>  <growth inhibition [%]>
6.05

$$$$
>  <molecule>
CNc1ncc(-c2nnnn2-c2ccccc2)c(CN(C)C)n1

>  <growth inhibition [%]>
5.1

$$$$
>  <molecule>
O=C1N=C2SC(=S)NC(=S)N2NC12c1ccccc1-c1ccccc12

>  <growth inhibition [%]>
10.5

$$$$
>  <molecule>
CC(C)NC(=O)c1ccccc1Sc1ccccc1CN(C)C(C)C

>  <growth inhibition [%]>
6.55

$$$$
>  <molecule>
Cc1cc(N(CCC#N)CCC#N)ccc1/C=C1N=C(/C=C/c2ccccc2)OC(=O)N\1

>  <growth inhibition [%]>
-10.1

$$$$
>  <molecule>
O=c1c2ccccc2[nH]c2c(O)ccc(O)c12

>  <growth inhibition [%]>
7.65

$$$$
>  <molecule>
CCCCCCCCCCCCCCCC(=O)NOCc1cscn1

>  <growth inhibition [%]>
-22.1

$$$$
>  <molecule>
CCOC(=O)[C@H]1Nc2c(cccc2[N+](=O)[O-])[C@H]2OCC[C@@H]12

>  <growth inhibition [%]>
11.4

$$$$
>  <molecule>
CC(C)=CC1C(COCc2cc3c(cc2Br)OCO3)C1(C)C (stereo not drawn)

>  <growth inhibition [%]>
-34.2

$$$$
>  <molecule>
CC(C)(C)CC(C)(C)c1ccc(OCc2ccc(C(F)(F)F)cc2)cc1

>  <growth inhibition [%]>
13.4

$$$$
>  <molecule>
CC(O)C(O)C(O)C(O)C#N (stereo not drawn)

>  <growth inhibition [%]>
11

$$$$
>  <molecule>
O=C(c1ccccc1)C12CCC3CC(CC(C3)C1)C2

>  <growth inhibition [%]>
6.05

$$$$
>  <molecule>
O=C(/C=C/c1ccc(O)c(O)c1)c1ccc(O)cc1O

>  <growth inhibition [%]>
4.05

$$$$
>  <molecule>
COc1cc(/C=C/C(=N\NC(=S)NN)c2sc(NNC(C)=O)nc2C)ccc1O

>  <growth inhibition [%]>
9.1

$$$$
>  <molecule>
OC(c1nc2ccccc2s1)(C(F)(F)F)C(F)(F)F

>  <growth inhibition [%]>
18.4

$$$$
>  <molecule>
CC(C)C(=O)Nc1nc(OCCc2ccc([N+](=O)[O-])cc2)c2ncn(C3CC(O)C(CO)O3)c2n1 (stereo not drawn)

>  <growth inhibition [%]>
8.5

$$$$
